Exercise: for every item that follows, state its recorded melting point.

Consider the molecule shown here: COc1ncc(Oc2ccc(Cl)cc2)c2cc(C(N)=O)sc12 What is its recorded melting point?
> 250 °C

Entry CC1=NC2(O)c3cc(-c4ccc(C(F)(F)F)cc4)ccc3CC2S1 (centres undefined) : reported melting point = ?
213 to 217 °C

Could you tell me which melting point is on file for COc1cc(C(C)C)c2c(c1)S(=O)(=O)N(COc1cc(C(F)(F)F)nn1-c1ccc(Cl)cn1)C2=O ?
173 to 174 °C

Which melting point value belongs to CCc1nc2c(N)nc3ccccc3c2n1CC#Cc1cccc(C(F)(F)F)c1 ?
202 to 204 °C

Look at this molecule and give its reported melting point. Cn1ncnc1COc1nn2c(-c3ccccc3F)nnc2cc1C(F)(F)F
123 to 126 °C

Quick one: melting point of CC(C)N(C(=O)C(C)C(C#N)(c1ccccc1)c1ccccc1)C(C)C (centres undefined) ?
195 to 205 °C

Dear colleague, I am looking for the recorded melting point of the following molecule: O=C(c1cc2ccc(N3CCOCC3)cc2o1)C12CC3CC(CC(C3)C1)C2
123 to 125 °C

Request the reported melting point associated with Cc1ncc(CNC(=O)c2ccc3n2Cc2ccccc2N(C(=O)CSc2ccc(Br)cc2)C3)c(CO)c1O
199 to 200 °C

Request the reported melting point associated with O=C1CCCCCCCCCCCCCCCCCCCCCC(O)C(=O)OCCCC1 (centres undefined)
67 to 68 °C

###

Would you kindly list melting point for each of these compounds?

I am curious: what melting point value has been reported for CCCNC(=O)c1ccc(F)c2c1CC(N(CCCc1c[nH]c3ccc(F)cc13)C1CCC1)CO2 (stereo not drawn) ?
67 °C

So what does the record say about melting point for COC(=O)C1=C(C)Nc2[nH]nc(-c3ccccc3)c2C1c1cccc([N+](=O)[O-])c1 (stereo not drawn) ?
240 to 241 °C

Param item = Clc1ccccc1C=C(CBr)c1ccccc1 ; retrieve measured melting point.
78 °C

Would you mind telling me what melting point value was observed for CCN(CCOC)C(=O)c1cc(-c2ccccc2)c(=O)[nH]c1-c1c(Cl)cccc1C#N ?
184 to 186 °C

Item CCOC(=O)c1cc2cc(C=O)cc(C(C)CC)c2oc1=O (stereo not drawn) has what recorded melting point?
89 to 90 °C

What measured melting point goes with CN(C)C(=O)Nc1c(C(=O)c2ccccc2)[nH]c2cc(Cl)ccc12 ?
222 to 223 °C

Sample Cc1cccc(/C=C/c2nc(COc3ccc(CCCCn4ccnc4CC(O)CO)cc3)co2)c1 (stereo not drawn) — what was its melting point?
102 to 104 °C

Field request: melting point | item: CCCCN(C)CCc1ccc(Nc2ncc3c(n2)-c2ccccc2[C@H](c2ccc(F)cc2)C3)cc1
164 to 166 °C

Would you mind telling me what melting point value was observed for CC(=O)NC[C@H]1CN(c2ccc3c(c2)C[C@@H](C)N3C(=O)COC(C)=O)C(=O)O1 ?
186 to 187 °C

I have this compound here, CCNC(=S)Nc1nccs1 , and I need its recorded melting point.
135 to 136 °C

Which melting point is listed for COC(=O)c1ccc(CNS(C)(=O)=O)cc1S(N)(=O)=O ?
185 to 187 °C

What measured melting point goes with CNc1cccc(C2C(C(=O)OC)=C(C)NC(C)=C2C(=O)OC)c1 ?
182 to 184 °C

Quick one: melting point of O=C1OCc2ccc(CO)cc21 ?
107 to 108 °C

###

PROPERTY_LABEL: melting point

Need melting point of CC(C)OC(=O)C=Cc1cc(N)ccc1Cl , thanks.
98 to 100 °C

Which melting point is listed for O=C(NC1CCOCC1)c1cnccc1C(F)(F)F ?
149 to 150 °C

Quick one: melting point for O=[N+]([O-])c1ccc(N2C[C@H]3CN(Cc4ccccc4)C[C@H]3C2)cc1 ?
121 to 123 °C

May I ask what melting point has been recorded for C=CCSc1cc(C(=O)O)cc(S(=O)(=O)Cl)c1Oc1ccccc1 ?
160 to 162 °C

Report melting point for COC(=N)Nc1nc(Cl)cc(Cl)n1 please.
178 °C

Quick one: melting point of NS(=O)(=O)c1cc2[nH]c(Cc3ccccc3Cl)nc2cc1Cl ?
223 to 226 °C

Dear colleague, I am looking for the recorded melting point of the following compound: N#Cc1c(Nc2cccc(Cl)c2)n[nH]c1N
195 to 200 °C

# input compound: CNC(=O)c1cc2c(Oc3ccc(C(=O)N4CCOCC4)cc3)cncc2s1 ; wanted: its melting point
173 to 175 °C

What value of measured melting point is listed for CCCCOC(=O)C(=O)Nc1ccccn1 ?
35 to 37 °C

Give the measured melting point of Cc1ccc(/C=C(/C(=O)OC(C)(C)C)C(=O)c2ccccc2O)cc1 .
86 to 89 °C

I'd like to know its melting point. The compound in question is CN(CCO)C(=O)c1cc2ccccc2[nH]1
141 to 142 °C

# get_value(readout='melting point', item= COC(=O)/C=C/c1cc(-c2ccc(C)cc2)cs1 )
116 to 118 °C

melting point for CCNC(CO)Cc1cn(Cc2ccccc2)cn1 (stereo not drawn) ?
109 to 110 °C

Returns the measured melting point for the input compound. Input: Cc1cc(-c2ccc(S(C)(=O)=O)cc2)n(-c2ccc(-c3ccoc3)cc2)c1C
215 to 219 °C

So what does the record say about melting point for C=C(CCC(C)C1CCC2C3=C(C(=O)CC21C)C1(C)CCC(=O)C(C)C1CC3)C(C)C(=O)OC (stereo not drawn) ?
100 to 102 °C

Form field: reported melting point of CCNC(=O)c1nn(-c2ccc(Cl)cc2)c(=O)c2c(N)scc12
203 to 205 °C

Using the record for COc1cccc(CC(=S)N2CCCCC2)c1 , report its melting point.
55 to 56 °C

Need melting point of COc1cc(C(=O)CCC(=O)O)ccc1O , thanks.
174 to 175 °C

###

Kindly state melting point for each of the entries shown.

What measured melting point goes with COCCN(C)Cc1ccc(NC(=O)C#Cc2ccc(-c3ccc(Cl)cc3)cc2)cc1 ?
130 to 133 °C

What value of melting point has been reported for the following molecule? CSc1ccc(C(CC(F)(F)F)=NO)cc1
106 to 107 °C

Request the reported melting point associated with CC(=O)OCc1c(-c2cc(Nc3cc(CN4CCC4)n(C)n3)c(=O)n(C)n2)cccc1-n1ncc2cc(C(C)(C)C)cc(F)c2c1=O
214 to 217 °C

Recorded melting point of O=C(Oc1ccc(Cl)cc1)c1c2ccccc2nc2ccccc12 , please.
170 °C

Could you share which melting point value was measured for CCCCCCCCCC(=O)Cc1ccc(OCc2ccccc2)c(OCc2ccccc2)c1 ?
68 °C

Looking for the measured melting point of CCCN1NC(c2ccccc2)C2=C1C(=Cc1ccccc1)CSC2 (centres undefined) , can you help?
106 to 118 °C

Tell me the measured melting point of COCCOC(=O)C1=C(C(F)F)NC(C)=C(C(=O)OC(C)C)C1c1cccc([N+](=O)[O-])c1 (centres undefined) , please.
146 to 147 °C

Look up melting point for this molecule: COc1ccc(S(=O)(=O)N2C(=O)C(OC(=O)N3CCN(c4ccncc4)CC3)(c3ccccc3OC(C)C)c3cc(Cl)ccc32)c(OC)c1 (centres undefined)
160 to 164 °C

Would you kindly share the measured melting point for O=C(O)CNc1nc(NCc2ccc(NC(=O)c3ccc(F)cc3)cc2)c2ccccc2n1 ?
235 °C

For Cc1oc(-c2ccccc2)nc1CCOc1ccc(OC(C)(C)C(=O)O)cc1 , what is its reported melting point?
129 to 130 °C

Consider the molecule CC1(COc2c(-c3ccc(S(C)(=O)=O)cc3)cnn(CC(F)(F)F)c2=O)CC1 and give its measured melting point.
98 to 99 °C

Sample O=C(O)COc1ccc(OC(F)(F)F)cc1C(=O)NCc1cccc([N+](=O)[O-])c1 — what was its melting point?
154 to 156 °C

What value of measured melting point is listed for COCCOc1ccc(Nc2nc(Nc3cc4c(cc3OC)CCN(CC(=O)N(C)C)CC4)ncc2Cl)c(OC)c1 ?
51 to 59 °C

Fill in: melting point of CCOC(=O)C1=C(C)NC(c2csc(C)n2)=NC1c1cccc(Cl)c1 (centres undefined) is ___
143 to 144 °C

###

PROPERTY_LABEL: melting point

Fill blank: measured melting point of the compound CC(=O)NCCn1nnnc1S is ____.
138 to 140 °C

Name the reported melting point value associated with the compound CCC(OC(C)=O)c1ccc(Cl)c2nc3n(c12)CCCN3c1ccc(OC)nc1C (stereo unspecified)
157 to 159 °C

// melting point lookup, key: COCCOc1nc2cc(-c3ccc(Cl)cc3)nnc2c2ccccc12
148 to 150 °C

Given the entry Cc1nc(N2CCN(Cc3ccc(OC(F)(F)F)cc3)C2=O)sc1C(=O)NCCc1ccccc1 , report its measured melting point.
184 to 185 °C

Request the reported melting point associated with CC(C)(C)OC(=O)C1(Cl)OC1c1ccc([N+](=O)[O-])cc1 (stereo unspecified)
60 °C

Which melting point value belongs to Clc1ccc(C2CNCCN2)cc1Cl (stereo unspecified) ?
74 to 76 °C

Dear colleague, I am looking for the recorded melting point of the following compound: CC[C@H]1CN(c2c(F)cc3c(=O)c(C(=O)O)cn(C4CC4)c3c2C)C[C@H]1N
148 to 150 °C

Param item = OCC#Cc1cccc2ccncc12 ; retrieve measured melting point.
138 to 139 °C

Recorded melting point for COC1C(OC(=O)c2ccccc2)C(COC(=O)c2ccccc2)OC1n1cc(C)c(=O)[nH]c1=O (stereo unspecified) , please?
128 to 130 °C

Which value of melting point has been reported for CN(C)CCCCCCc1ccc(NC=NO)cc1 in the records?
96 to 97 °C

Give its melting point value. Item: Cn1cc(S(=O)(=O)Cl)c(=O)c2ccc(Cl)cc21
> 300 °C
